Source: patent US9770026B2

- System: carmine spider mite
- assay-protocol: bioactivity test against carmine spider mite, airbrush spray
- Type: in vivo
- conditions: Tetranychus cinnabarinus, 72 h, 600 mg/L; contrastive test; read-out: Insecticidal activity against carmine spider mite (% )
Assignment: determine reported pest or weed control at 600 µg/mL for the given compounds.
Answer by giving the amount and then stating its unit.

// below: answered compounds
| compound | pest or weed control at 600 µg/mL |
| --- | --- |
| Cc1ncnc(NC(C)c2ccc(Oc3ccc(C(F)(F)F)cc3Cl)cc2)c1Cl (stereo not shown) [CK30, reference compound] | 100% |
| Cc1ncnc(NCc2ccc(Oc3ncc(Cl)cc3Cl)cc2)c1Cl [CK37, reference compound] | 0% |
| CCc1ncnc(NCCc2ccc(Oc3ccc(C(F)(F)F)cc3)cc2)c1Cl | 100% |

Record pest or weed control at 600 µg/mL per entry; entries follow.
1. CC(Cl)c1ncnc(NCc2ccc(Oc3ccc(C(F)(F)F)cn3)cc2)c1Cl (stereo not shown) [CK43, reference compound]
2. CCC(Nc1ncnc(C)c1Cl)c1ccc(Oc2ccc(C(F)(F)F)cn2)cc1 (stereo not shown) [CK41, reference compound]
3. CC(Cl)c1ncnc(NCCc2ccc(Oc3ccc(Cl)nn3)cc2)c1Cl (stereo not shown) [CK62, reference compound]
4. COC(=O)c1ccc(Oc2ccc(CCNc3cc(Cl)ncn3)cc2)nc1 [CK77, reference compound]
5. Cc1nc(C)c(Cl)c(NCc2ccc(OCc3ccccc3)cc2)n1 [CK52, reference compound]
6. CCc1ncnc(NCc2ccc(Oc3c(Cl)cc([N+](=O)[O-])cc3Cl)cc2)c1Cl [CK66, reference compound]
7. Cc1ncnc(NC(=O)Cc2ccc(Oc3ccc(C(F)(F)F)cc3Cl)cc2)c1Cl [CK58, reference compound]

1: 74%; 2: 100%; 3: 0%; 4: 56%; 5: 44%; 6: 0%; 7: 0%

---

- Tested on: carmine spider mite
- assay-protocol: bioactivity test against carmine spider mite, airbrush spray
- Format: in vivo
- conditions: Tetranychus cinnabarinus, 72 h, 600 mg/L; contrastive test; read-out: Insecticidal activity against carmine spider mite (% )
recorded-metric: pest or weed control at 600 µg/mL (%)
Answers are plain numbers, in %.

| molecule | unit-of-measure | recorded-value |
| --- | --- | --- |
| FC(F)(F)c1ccc(Oc2ccc(CCNc3cc(Cl)ncn3)cc2)nc1 [CK69, reference compound] | % | 100 |
| COC(=O)c1ccc(Oc2ccc(CCNc3nc(Cl)ncc3Cl)cc2)nc1 [CK78, reference compound] | % | 17 |
| CCc1ncnc(NCc2ccc(Oc3ncc(Cl)cc3Cl)cc2)c1Cl [CK64, reference compound] | % | 56 |

# input for lookup
Item: FC(F)(F)c1ccc(Oc2ccc(CCNc3ncnc(Cl)c3Cl)cc2)nc1 [CK73, reference compound] | pest or weed control at 600 µg/mL: 100

---

- Tested on: cucumber downy mildew
- assay-protocol: protectant activity in vivo against cucumber downy mildew
- conditions: 12.5 mg/L; protectant activity
Would you mind telling me the reported control effect against cucumber downy mildew (%) of each entry?
Write the numeric value and follow it with the unit.

| molecule | recorded-value |
| --- | --- |
| Cc1ccc(Oc2ccc(CCNc3ncnc(C)c3Cl)cn2)cc1 [III-16] | 100% |
| CCc1ncnc(NCCc2ccc(Oc3ccc(C(F)(F)F)cc3Cl)nc2)c1Cl [III-301] | 100% |
| COc1ccc(Oc2ccc(CCNc3ncnc(C)c3Cl)cn2)cc1 [III-19] | 98% |

For each of the molecules below, note its control effect against cucumber downy mildew (%).
1. CCc1ncnc(NCCc2ccc(Oc3cccc(C(F)(F)F)c3)nc2)c1Cl [III-201]
2. Cc1ncnc(NCCc2ccc(Oc3ccccc3)nc2)c1Cl [III-1]
3. FC(F)c1ncnc(NCCc2ccc(Oc3ccccc3)nc2)c1Cl [III-541]
4. COc1ccc(Oc2ccc(CCNc3nc(C)nc(Cl)c3Cl)cn2)cc1 [III-2539]

["98%", "100%", "100%", "85%"]

Each molecule below has a recorded value; state its control effect against cucumber downy mildew (%).
1. Cc1nc(Cl)c(Cl)c(NCCc2ccc(Oc3ccccc3)nc2)n1 [III-2521]
2. Cc1ncnc(NCCc2ccc(Oc3ccc(C(F)(F)F)cc3)nc2)c1Cl [III-22]

["100%", "100%"]

Sample CCc1ncnc(NCCc2ccc(Oc3ccc(Cl)cc3)nc2)c1Cl [III-187] ; control effect against cucumber downy mildew (%) observed: 100%
